PROTOCOL DETAILS: yeast display, Sf9 membrane polyspecificity reagent, FACS + sequencing; frameworks hold sequencing errors
PARAMETER MEASURED: polyreactivity (PSR sort gate)

1) QVPLVESGGGLVQAGGSLRLSCAASGRIFGTNTMGWYRQAPGKEREWVAAITWSGGSTYYADSGTGRFTISRDNAKNPVYLQMNSLNPEDTAGYYCNVESAYAYHGPVDYWGQGTQVTVSS :: low polyreactivity
2) QVQLVESGGGLVQAGGSLRLSCAASGRIFRHYGMGWYRQAPGKERELVARITRSGGSTYYADSVKGRFTISRDNAKNTVYLQMTSLKPEDTAVYYCAAFTYGESWYDYWGQGTQVTVSS :: low polyreactivity

Origin of measurements: the nanobody polyreactivity screen of Harvey et al. (2022)
